Tested on: MDA-MB-231 breast
assay_protocol: NCI tumour cell line growth inhibition, 48 h
TGI below 20 µM gives criterion not met; TGI at or above it gives criterion met.

• COc1cc(/C=C2\C[C@H]3[C@@H]4CC=C5C[C@@H](N6CCCC6)CC[C@]5(C)[C@H]4CC[C@]3(C)[C@H]2O)cc(OC)c1OC = criterion met
• COc1cc2c(cc1OC)C1CN3C(=O)CCC3C(O)C1c1cc(OC)c(OC)cc1-2 (stereo not drawn) = criterion met
• C#Cc1cccc(NC(=O)Nc2ccccc2NC(=O)CCl)c1 = criterion met
• O=P(O)(O)OC1C(OP(=O)(O)O)C(OP(=O)(O)O)C(OP(=O)(O)O)C(OP(=O)(O)O)C1OP(=O)(O)O (stereo not drawn) = criterion met
• CCN(CC)CCCCCCCCNc1c2ccc(Cl)cc2nc2ccc(OC)cc12 = criterion not met
• FC(F)(F)c1ccc2nc(-c3nc(-c4ccccc4)n4ccccc34)[nH]c2c1 = criterion not met

These measurements were taken from PubChem BioAssay (NCI).
